Kindly state half-life at 0.5 μM for each of the entries shown.
experiment: Rat liver microsome stability assay; assay type: in vitro ADME; settings: rat liver microsomes (male Sprague-Dawley), 0.5 μM test compound, 0.25 mg/mL microsomal protein, pH 7.4, 37° C.; read-out: Stability in rat liver microsomes (t1/2 in minutes)

CC(C)COc1ccc(S(C)(=O)=O)cc1-c1cn(C)c(=O)c2[nH]ccc12 | 24 min
Cn1cc(-c2cc(S(C)(=O)=O)ccc2Oc2ccc(F)cc2F)c2cc(CN3CCOCC3)[nH]c2c1=O | 84 min
Cn1cc(-c2cc(S(C)(=O)=O)ccc2NC2CCCCC2)c2cc[nH]c2c1=O | 8 min
CN(C)C(=O)CN1CCN(C(=O)c2ccc(Oc3ccc(F)cc3F)c(-c3cn(C)c(=O)c4[nH]ccc34)c2)CC1 | 71 min
CC(=O)Nc1ccc(Oc2ccccc2)c(-c2cn(C)c(=O)c3[nH]ccc23)c1 | 7 min

Would you mind listing half-life at 0.5 μM for each of the following compounds?
1. Cn1cc(-c2cc(C(=O)Nc3nccs3)ccc2Oc2ccccc2)c2cc[nH]c2c1=O
2. Cn1cc(-c2cc(S(C)(=O)=O)ccc2OC2C3CC4CC(C3)CC2C4)c2cc[nH]c2c1=O (centres unmarked)
3. Cn1cc(-c2cc(S(C)(=O)=O)ccc2Oc2cccc3nsnc23)c2cc[nH]c2c1=O
4. Cn1cc(-c2ccccc2-c2ccccc2)c2cc[nH]c2c1=O

1. 18 min
2. 7 min
3. 13 min
4. 5 min

Would you mind listing half-life at 0.5 μM for each of the following compounds?
1. CCS(=O)(=O)Nc1ccc(OCC2CC2)c(-c2cn(C)c(=O)c3[nH]ccc23)c1
2. Cn1cc(-c2ccccc2Oc2ccccc2)c2cc(-c3ccccc3)[nH]c2c1=O
3. CCS(=O)(=O)Nc1ccc(Oc2ccc(F)cc2F)c(-c2cn(C)c(=O)c3[nH]c(C(=O)N4CCN(C)CC4)cc23)c1
4. Cn1cc(-c2cc(S(N)(=O)=O)ccc2NCC2CC2)c2cc[nH]c2c1=O
5. Cn1cc(-c2cc(S(C)(=O)=O)ccc2OCC2C[C@@H]3CC[C@H]2C3)c2cc[nH]c2c1=O (some centres unmarked)

["12 min", "12 min", "29 min", "> 120 min", "8 min"]

Would you mind listing half-life at 0.5 μM for each of the following compounds?
1. Cn1cc(-c2ccccc2C(=O)c2ccc(Cl)cc2)c2cc[nH]c2c1=O
2. CNS(=O)(=O)c1cnc(NCC2CC2)c(-c2cn(C)c(=O)c3[nH]ccc23)c1
3. Cn1cc(-c2ccc(OCC3CC3)c(-c3cn(C)c(=O)c4[nH]ccc34)c2)cn1
4. CN(C)c1ccc(NC(=O)c2ccc(Oc3ccc(F)cc3F)c(-c3cn(C)c(=O)c4[nH]ccc34)c2)cc1
5. Cc1ccc(Oc2ccc(S(C)(=O)=O)cc2-c2cn(C)c(=O)c3[nH]ccc23)cc1

1: 8 min; 2: > 120 min; 3: 24 min; 4: 12 min; 5: 6 min

====

biological target: human BRD4 first bromodomain (BDI_K57-E168) (Homo sapiens (Human), UniProt O60885); test: TR-FRET bromodomain binding assay, BRD4 first bromodomain
Reported Endpoint: Ki (nM)
Answers are plain numbers, in nM.

Worked examples follow.
Cn1cc(-c2cc(CO)ccc2Oc2ccccc2)c2cc[nH]c2c1=O [Example 20] | 10.9
Cn1cc(-c2cc(S(C)(=O)=O)ccc2OCC2CCCCC2)c2cc[nH]c2c1=O [Example 224] | 6.9
Cn1cc(-c2cc(S(C)(=O)=O)ccc2OCCN2CCCC2=O)c2cc[nH]c2c1=O [Example 232] | 213
Cc1cc(OCC2CC2)c(-c2cn(C)c(=O)c3[nH]ccc23)cc1NS(C)(=O)=O [Example 263] | 8.8
CN(C)CCS(=O)(=O)Nc1ccc(Oc2ccc(F)cc2F)c(-c2cn(C)c(=O)c3[nH]ccc23)c1 [Example 300] | 389

Would you mind listing Ki for each of the following molecules?
1. CCS(=O)(=O)c1ccc(OC2CCN(C(C)=O)CC2)c(-c2cn(C)c(=O)c3[nH]ccc23)c1 [Example 303]
2. COC(=O)c1cc2c(-c3ccccc3Oc3ccccc3)cn(C)c(=O)c2n1C [Example 68]
3. CCS(=O)(=O)c1ccc(OC2CCC3(CC2)OCCO3)c(-c2cn(C)c(=O)c3[nH]ccc23)c1 [Example 197]
4. CCS(=O)(=O)Nc1ccc(Oc2ccc(F)cc2F)c(-c2cn(C)c(=O)c3[nH]cc(CN4CCN(C)CC4)c23)c1 [Example 351]
5. CCS(=O)(=O)c1ccc(OC2CCC(C)(O)CC2)c(-c2cn(C)c(=O)c3[nH]ccc23)c1 (stereo not shown) [Example 212]
6. CN1CCN(Cc2cc3c(-c4cc(S(C)(=O)=O)ccc4Oc4ccc(F)cc4F)cn(C)c(=O)c3[nH]2)CC1 [Example 281]

1. 3.9
2. 1700
3. 1.5
4. 223
5. 1.8
6. 1.8

Would you mind listing Ki for each of the following molecules?
1. Cn1cc(-c2cc(NS(C)(=O)=O)ccc2Oc2ccccc2C#N)c2cc[nH]c2c1=O [Example 25]
2. CCS(=O)(=O)Nc1ccc(OCC2CC2)c(-c2cn(C)c(=O)c3[nH]ccc23)c1C [Example 251]
3. Cn1cc(-c2cc(C(=O)NC3CCOC3)ccc2Oc2ccc(F)cc2F)c2cc[nH]c2c1=O (stereo not shown) [Example 51]
4. Cn1cc(-c2cc(C3=CCNCC3)ccc2OCC2CC2)c2cc[nH]c2c1=O [Example 340]
5. CCS(=O)(=O)c1ccc(O[C@H]2CC[C@@H](O)CC2)c(-c2cn(C)c(=O)c3[nH]ccc23)c1 [Example 202]
6. CN(C)S(=O)(=O)Nc1ccc(Oc2ccccc2)c(-c2cn(C)c(=O)c3[nH]ccc23)c1 [Example 22]

1. 3
2. 63.1
3. 9.7
4. 942
5. 1.7
6. 2.2
